From: patent US20250288704A1

- assay.protocol: Biodistribution in Jurkat tumor-bearing CB-17 SCID mice
- Assay type: in vivo
- applied.conditions: female, CB-17 SCID, mouse, in vivo, iv, total radioactivity, % iD/g Tumor
Non-standard residues stand in square brackets, D forms with d. Residues, ends and D or L forms follow the SMILES beside them. Groups on a side chain read outwards from the residue. *: point of attachment. DOTA = O=C(O)CN1CCN(CC(=O)O)CCN(CC(=O)*)CCN(CC(=O)O)CC1; 2Nal = N[C@@H](Cc1ccc2ccccc2c1)C(=O)O; dNMeOrn = CN[C@H](CCCN)C(=O)O; 4Abz = Nc1ccc(C(=O)O)cc1; dDap = NC[C@@H](N)C(=O)O
tissue uptake at 1 h values for the molecules below.

molecule: C[C@@H](NC(=O)[C@@H](CCCNC(=N)N)NC(=O)[C@@H](CN)NC(=O)CCCCCNC(=O)[C@@H](CNC(=O)CN1CCN(CC(=O)O)CCN(CC(=O)O)CCN(CC(=O)O)CC1)NC(=O)CCCCC[N+]1=C(/C=C/C=C/C=C2/N(C)c3ccc(S(=O)(=O)O)cc3C2(C)C)C(C)(C)c2cc(S(=O)(=O)[O-])ccc21)C(=O)Nc1ccc(C(=O)NCCC[C@@H]2C(=O)N[C@@H](CCCNC(=N)N)C(=O)N[C@@H](Cc3ccc4ccccc4c3)C(=O)NCC(=O)N[C@H](Cc3ccc(O)cc3)C(=O)N2C)cc1 [[^natLu]CXCR4-OI-3, metal not drawn]
tissue uptake at 1 h / %ID/g: 2.13
--
molecule: C[C@@H](NC(=O)[C@@H](CCCNC(=N)N)NC(=O)[C@@H](CN)NC(=O)CN1CCN(CC(=O)O)CCN(CC(=O)O)CCN(CC(=O)O)CC1)C(=O)Nc1ccc(C(=O)NCCC[C@@H]2C(=O)N[C@@H](CCCNC(=N)N)C(=O)N[C@@H](Cc3ccc4ccccc4c3)C(=O)NCC(=O)N[C@H](Cc3ccc(O)cc3)C(=O)N2C)cc1 [CXCR4-DOTA-3 [Lu]] (cyclo([dY][dNMeOrn]([4Abz-dA-dR-dDap-DOTA])R[2Nal]G))
tissue uptake at 1 h / %ID/g: 8.42

---

tissue uptake at 6 h values for the molecules below.
- assay.protocol: Biodistribution in Jurkat tumor-bearing CB-17 SCID mice
- Assay type: in vivo
- applied.conditions: female, CB-17 SCID, mouse, in vivo, iv, total radioactivity, % iD/g Blood
Non-standard residues stand in square brackets, D forms with d. Residues, ends and D or L forms follow the SMILES beside them. Groups on a side chain read outwards from the residue. *: point of attachment. DOTA = O=C(O)CN1CCN(CC(=O)O)CCN(CC(=O)*)CCN(CC(=O)O)CC1; dTyr(3-I) = N[C@H](Cc1ccc(O)c(I)c1)C(=O)O; 2Nal = N[C@@H](Cc1ccc2ccccc2c1)C(=O)O; dNMeOrn = CN[C@H](CCCN)C(=O)O; 4Abz = Nc1ccc(C(=O)O)cc1; dDap = NC[C@@H](N)C(=O)O

molecule: C[C@@H](NC(=O)[C@@H](CCCNC(=N)N)NC(=O)[C@@H](CN)NC(=O)CN1CCN(CC(=O)O)CCN(CC(=O)O)CCN(CC(=O)O)CC1)C(=O)Nc1ccc(C(=O)NCCC[C@@H]2C(=O)N[C@@H](CCCNC(=N)N)C(=O)N[C@@H](Cc3ccc4ccccc4c3)C(=O)NCC(=O)N[C@H](Cc3ccc(O)c(I)c3)C(=O)N2C)cc1 [CXCR4-DOTA-4 [Lu]] (cyclo([dTyr(3-I)][dNMeOrn]([4Abz-dA-dR-dDap-DOTA])R[2Nal]G))
unit.annotation: %ID/g
tissue uptake at 6 h: 0.05

molecule: C[C@@H](NC(=O)[C@@H](CCCNC(=N)N)NC(=O)[C@@H](CN)NC(=O)CN1CCN(CC(=O)O)CCN(CC(=O)O)CCN(CC(=O)O)CC1)C(=O)Nc1ccc(C(=O)NCCC[C@@H]2C(=O)N[C@@H](CCCNC(=N)N)C(=O)N[C@@H](Cc3ccc4ccccc4c3)C(=O)NCC(=O)N[C@H](Cc3ccc(O)cc3)C(=O)N2C)cc1 [CXCR4-DOTA-3 [Lu]] (cyclo([dY][dNMeOrn]([4Abz-dA-dR-dDap-DOTA])R[2Nal]G))
unit.annotation: %ID/g
tissue uptake at 6 h: 0.03

---

- Test system: CXCR4-expressing Chem_1 cells
- assay.protocol: Determination of internalization, dual tracer with 125I-Fc-131
- Type: cell-based
- applied.conditions: 30 min; of total cellular activity
Non-standard residues stand in square brackets, D forms with d. Residues, ends and D or L forms follow the SMILES beside them. Groups on a side chain read outwards from the residue. *: point of attachment. X9 = NCCNCC(CNCCN)C(=O)NC[C@@H](NC(=O)CC[C@@H](NC(=O)N[C@H](CCC(=O)O)C(=O)O)C(=O)O)C(=O)*; 2Nal = N[C@@H](Cc1ccc2ccccc2c1)C(=O)O; dNMeOrn = CN[C@H](CCCN)C(=O)O; 4Abz = Nc1ccc(C(=O)O)cc1; X1 = NCCNCC(CNCCN)C(=O)*; dDap = NC[C@@H](N)C(=O)O; Ahx = NCCCCCC(=O)O

molecule: C[C@@H](NC(=O)[C@@H](CCCNC(=N)N)NC(=O)[C@@H](CN)NC(=O)CCCCCNC(=O)[C@@H](CNC(=O)CC[C@H](C(=O)O)N1CCN(CC(=O)O)CCN(CC(=O)O)CCN(CC(=O)O)CC1)NC(=O)C[N+](C)(C)Cc1ccc([Si](F)(C(C)(C)C)C(C)(C)C)cc1)C(=O)Nc1ccc(C(=O)NCCC[C@@H]2C(=O)N[C@@H](CCCNC(=N)N)C(=O)N[C@@H](Cc3ccc4ccccc4c3)C(=O)NCC(=O)N[C@H](Cc3ccc(O)cc3)C(=O)N2C)cc1 [CXCR4-SiFA-6 [Ga]]
experimental.target: CXCR4-expressing Chem_1 cells
unit.annotation: %
Internalized [%]: 37.0
//
molecule: C[C@@H](NC(=O)[C@@H](CCCNC(=N)N)NC(=O)[C@@H](CN)NC(=O)C(CNCCN)CNCCN)C(=O)Nc1ccc(C(=O)NCCC[C@@H]2C(=O)N[C@@H](CCCNC(=N)N)C(=O)N[C@@H](Cc3ccc4ccccc4c3)C(=O)NCC(=O)N[C@H](Cc3ccc(O)cc3)C(=O)N2C)cc1 [Tc-CXCR4-14] (cyclo([dY][dNMeOrn]([4Abz-dA-dR-dDap-X1])R[2Nal]G))
experimental.target: CXCR4-expressing Chem_1 cells
unit.annotation: %
Internalized [%]: 30.2
//
molecule: C[C@@H](NC(=O)[C@@H](CCCNC(=N)N)NC(=O)[C@@H](CN)NC(=O)CCCCCNC(=O)[C@@H](CNC(=O)C(CNCCN)CNCCN)NC(=O)CC[C@@H](NC(=O)N[C@H](CCC(=O)O)C(=O)O)C(=O)O)C(=O)Nc1ccc(C(=O)NCCC[C@@H]2C(=O)N[C@@H](CCCNC(=N)N)C(=O)N[C@@H](Cc3ccc4ccccc4c3)C(=O)NCC(=O)N[C@H](Cc3ccc(O)cc3)C(=O)N2C)cc1 [Tc-CXCR4-16] (cyclo([2Nal]G[dY][dNMeOrn]([4Abz-dA-dR-dDap-Ahx-X9])R))
experimental.target: CXCR4-expressing Chem_1 cells
unit.annotation: %
Internalized [%]: 15.0

---

- assay.protocol: Biodistribution in Jurkat tumor-bearing CB-17 SCID mice
- Format: in vivo
- applied.conditions: female, CB-17 SCID, mouse, in vivo, iv, total radioactivity, % iD/g Bone
Non-standard residues stand in square brackets, D forms with d. Residues, ends and D or L forms follow the SMILES beside them. Groups on a side chain read outwards from the residue. *: point of attachment. DOTA = O=C(O)CN1CCN(CC(=O)O)CCN(CC(=O)*)CCN(CC(=O)O)CC1; dTyr(3-I) = N[C@H](Cc1ccc(O)c(I)c1)C(=O)O; 2Nal = N[C@@H](Cc1ccc2ccccc2c1)C(=O)O; dNMeOrn = CN[C@H](CCCN)C(=O)O; 4Abz = Nc1ccc(C(=O)O)cc1; dDap = NC[C@@H](N)C(=O)O
tissue uptake at 6 h values for the molecules below.

molecule: C[C@@H](NC(=O)[C@@H](CCCNC(=N)N)NC(=O)[C@@H](CN)NC(=O)CN1CCN(CC(=O)O)CCN(CC(=O)O)CCN(CC(=O)O)CC1)C(=O)Nc1ccc(C(=O)NCCC[C@@H]2C(=O)N[C@@H](CCCNC(=N)N)C(=O)N[C@@H](Cc3ccc4ccccc4c3)C(=O)NCC(=O)N[C@H](Cc3ccc(O)c(I)c3)C(=O)N2C)cc1 [CXCR4-DOTA-4 [Lu]] (cyclo([dTyr(3-I)][dNMeOrn]([4Abz-dA-dR-dDap-DOTA])R[2Nal]G))
tissue uptake at 6 h: 0.57 %ID/g
--
molecule: C[C@@H](NC(=O)[C@@H](CCCNC(=N)N)NC(=O)[C@@H](CN)NC(=O)CN1CCN(CC(=O)O)CCN(CC(=O)O)CCN(CC(=O)O)CC1)C(=O)Nc1ccc(C(=O)NCCC[C@@H]2C(=O)N[C@@H](CCCNC(=N)N)C(=O)N[C@@H](Cc3ccc4ccccc4c3)C(=O)NCC(=O)N[C@H](Cc3ccc(O)cc3)C(=O)N2C)cc1 [CXCR4-DOTA-3 [Lu]] (cyclo([dY][dNMeOrn]([4Abz-dA-dR-dDap-DOTA])R[2Nal]G))
tissue uptake at 6 h: 0.28 %ID/g
